test system: HL-60; assay: Antiproliferative activity against human HL60 cells assessed as cell growth inhibition after 72 hrs by MTT assay; format: functional, cell-based; settings: HL-60, 72 h
pIC50: −log10 of the molar value.

MOLECULE	pIC50
CCCCCCCCCCCCCC(=O)OCC(COC(=O)CCCCCCCCCCCCC)OP(=O)([O-])OC[C@H]1O[C@@H](n2cnc3c(N)nc(F)nc32)[C@@H](O)[C@@H]1O.[Na+]	4.19
CCCCCCCCCCCCCC(=O)OCC(COP(=O)([O-])OC[C@H]1O[C@@H](n2cnc3c(N)nc(F)nc32)[C@@H](O)[C@@H]1O)OC(=O)CCCCCCCCCCCCC.[Na+] (some centres not stated)	4.80

Data provenance is ChEMBL document CHEMBL3596105.
